All figures here come from a melting point compilation (Tetko et al.; mined from patent text by program, amines drawn as free bases though some values may be those of a salt).

Reported melting point values for a set of molecules

Reference set (4 entries):
>>> df
                                   molecule   assay_result
0  CNCC1Cc2cc(C(F)(F)F)cc(-c3cccc(F)c3F)c2O1 (stereo not given)  123 to 125 °C
1  OC(c1ccc(Cl)cc1)(c1ccc(Cl)cc1)c1nnc[nH]1  233 to 234 °C
2      Cc1ccc(-c2c(Cl)nc(-c3cccs3)nc2Cl)cc1         120 °C
3  O=[N+]([O-])c1cc2c(cc1NCC(O)CO)OCO2 (stereo not given)  120 to 121 °C

Switching to the query record.
Entry under review: "COc1cc(CN2CC[C@H](O)C2)ccc1-c1nc2c(N[C@H]3[C@@H](C(N)=O)[C@@H]4C=C[C@H]3C4)c(Cl)cnc2[nH]1" . Reported melting point?
205 to 208 °C

---

Reported melting point values for a set of compounds

In [3]: df
Out[3]:
                                   compound   assay_result
0  CSc1nccc(-c2cn(Cc3ccccc3C#N)c(=O)n2-c2ccc(F)cc2)n1  141 to 142 °C
1  Nc1nc2c(s1)CC(CNC(=O)[C@@H]1CCCN1C(=O)[C@@H](CC1CCCCC1)NS(=O)(=O)Cc1ccccc1)CC2 (stereo not given in full)  203 to 205 °C
2  COc1ccc(Oc2ccc(F)cc2)cc1C#CC(C)N(O)C(N)=O (stereo not given)  141 to 142 °C
3                   N#Cc1cnc(-c2ccncc2)nc1N  253 to 255 °C
4    OC1Cc2ccc3ccccc3c21 (stereo not given)   96 to 100 °C

Entry under review: CC(C)C(NC(=O)c1ccncc1)C(=O)NC(Cc1ccccc1)C(O)C(Cc1ccccc1)NC(=O)C(NC(=O)c1ccncc1)C(C)C (stereo not given) . Reported melting point?
256 to 258 °C

And for "NS(=O)(=O)c1ccccc1Cn1cncn1" ?
128 to 131 °C

And for "CCn1ncc2c3[nH]cnc(=O)c3cnc21" ?
320 to 322 °C

And for COc1ccc(S(=O)(=O)C(Cc2ccc3ccccc3c2)C(=O)NO)cc1 (stereo not given) ?
161 to 163 °C

And for CC12CCC(=O)C=C1CCC1C2=CCC2(C)C1CCC2(O)C#N (stereo not given) ?
225 to 228 °C

And for "O=C(c1ccc(F)c(F)c1)N1CCC[C@H](c2nc(-c3ccccn3)no2)C1" ?
135 to 137 °C

And for COC(=O)C12COc3cc(C(F)(F)F)ccc3C1=NN(C(=O)N(C)c1ccc(C(F)(F)F)cc1)C2 (stereo not given) ?
105 to 111 °C

And for "COc1ccc2cc([C@H](C)C(=O)NOCC(=O)NCCO[N+](=O)[O-])ccc2c1" ?
40 to 44 °C

And for Cc1ccccc1C(=O)Nc1ccc(C(=O)N2CCCC(NC(=O)Cn3ccnc3)c3ccccc32)cc1 (stereo not given) ?
250 to 252 °C

And for "COc1cc(NC(=O)CCCCCN2CCN(c3ccccn3)CC2)c2nccc(C)c2c1" ?
120 to 121 °C

And for CC1=C(C(=O)OCCN(Cc2ccccc2)Cc2ccccc2)C(c2ccccc2C(F)(F)F)c2c(ccnc2OC(C)C)N1 (stereo not given) ?
132 to 133 °C

And for Cc1nc(N2CCN(CC3CC3(F)F)C2=O)sc1C(=O)NCc1cccnc1 (stereo not given) ?
169 to 171 °C

And for "NNC(=O)c1ccc(-c2csc(N=C(N)N)n2)o1" ?
279 to 280 °C

And for O=[N+]([O-])c1ccc2c(c1)C(N1CCCC1)C(O)CC2 (stereo not given) ?
77 °C

And for "Cc1ccc(Cl)cc1N1CCN(c2nc(=O)c3cc(C(F)(F)F)cc([N+](=O)[O-])c3s2)CC1" ?
158 to 161 °C

And for "COC(=O)c1coc2cc(Oc3ccnc(N)n3)ccc12" ?
194 to 196 °C

And for "Oc1ccc2cc(-c3cc4ccccc4s3)ccc2c1Cl" ?
220 to 221 °C

And for O=C1Nc2ccccc2N2C1CCC2c1cccc(Cl)c1 (stereo not given) ?
210 °C
